Target: HIV-1 RT (Human immunodeficiency virus type 1 group M subtype B)
Construct: Pre-Steady State Kinetic Parameters of HIV-1 RT for dTTP/dUTP
Assay: Single nucleotide extension at macrophage nucleotide concentrations
Assay type: biochemical
Conditions: rNTP alone at macrophage concentration

- compound.smiles: "Nc1nc2c(ncn2[C@@H]2O[C@H](COP(=O)(O)OP(=O)(O)OP(=O)(O)O)[C@@H](O)[C@H]2O)c(=O)[nH]1"
  system.tested: "HIV-1 RT (Human immunodeficiency virus type 1 group M subtype B)"
  rNTP incorporation by HIV-1 RT: "less efficiently"
- compound.smiles: "Nc1ccn([C@@H]2O[C@H](COP(=O)(O)OP(=O)(O)OP(=O)(O)O)[C@@H](O)[C@H]2O)c(=O)n1"
  system.tested: "HIV-1 RT (Human immunodeficiency virus type 1 group M subtype B)"
  rNTP incorporation by HIV-1 RT: "efficiently"
- compound.smiles: "O=c1ccn([C@@H]2O[C@H](COP(=O)(O)OP(=O)(O)OP(=O)(O)O)[C@@H](O)[C@H]2O)c(=O)[nH]1"
  system.tested: "HIV-1 RT (Human immunodeficiency virus type 1 group M subtype B)"
  rNTP incorporation by HIV-1 RT: "less efficiently"
- compound.smiles: "Nc1ncnc2c1ncn2[C@@H]1O[C@H](COP(=O)(O)OP(=O)(O)OP(=O)(O)O)[C@@H](O)[C@H]1O"
  system.tested: "HIV-1 RT (Human immunodeficiency virus type 1 group M subtype B)"
  rNTP incorporation by HIV-1 RT: "efficiently"
